TARGET DESC: Torsin-1A (Homo sapiens) (UniProt O14656)
Sequence (O14656 whole entry, looked up): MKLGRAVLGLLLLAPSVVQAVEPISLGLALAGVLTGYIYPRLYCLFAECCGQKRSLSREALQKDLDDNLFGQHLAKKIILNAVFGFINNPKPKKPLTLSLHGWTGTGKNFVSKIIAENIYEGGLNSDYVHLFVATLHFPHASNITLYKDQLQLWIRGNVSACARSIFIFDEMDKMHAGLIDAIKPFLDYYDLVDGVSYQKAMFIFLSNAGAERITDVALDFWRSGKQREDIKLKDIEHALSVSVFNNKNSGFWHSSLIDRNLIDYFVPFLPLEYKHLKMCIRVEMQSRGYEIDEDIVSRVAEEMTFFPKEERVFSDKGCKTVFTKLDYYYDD
PROCEDURE TEXT: torsin A binders from cell lysate, primary screen, small-molecule microarray, wild-type, 635/667 nm (AID 1149)
EXPERIMENTAL CONDITIONS: COS7 hTOR1A-WT lysate, 635 nm fluorescence, higher = more signal
Recorded composite z-score by entry
ENDPOINT: composite z-score

{"columns": ["COMPOUND", "VALUE MEASURED"],
 "data": [
  ["C=CCNC(=O)[C@H]1[C@@H]2C(=O)O[C@@H](c3ccccc3)[C@@H](c3ccccc3)N2[C@@H](c2ccc(O)cc2)[C@]12C(=O)Nc1ccc(C#CCNC(N)=O)cc12", -0.109],
  ["CCN1C(C)=C(C(=O)OC)[C@@H](c2ccccc2)N2C(=O)[C@](O)(C(=O)OC)[C@@H](c3ccccc3)C(C(=O)c3ccccc3)=C12", 0.5],
  ["CN1C(=O)C2C=CC(C(O)C3CC=CCC3)N(Nc3ccccc3)C2C1=O (stereo not given)", 0.664],
  ["CO[C@H]1O[C@H](CO)[C@@H](OC(=O)Nc2ccc3c(c2)OCO3)[C@H](OC(=O)Nc2ccccc2)[C@@H]1OC(=O)Nc1ccccc1", 0.491],
  ["COCCOC(=O)N1C(=O)[C@@]2(c3cc(C#CCNC(N)=O)ccc31)[C@H](c1ccc(OCCO)cc1)N1[C@H](c3ccccc3)[C@H](c3ccccc3)OC(=O)[C@H]1[C@@H]2C(=O)Nc1nc2ccccc2s1", 0.72]
]}
